- experimental_protocol: chemical genetic growth profiling, strain panel (AID 1159580);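 also: tested at 20 µM; growth read once vehicle control cultures reached saturation at 30 °C; 1 = growth at the plate median or of vehicle wells; lower values mean less growth of the strain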
- stated_conditions: S. cerevisiae deletion strains, growth OD, locus YER111C, strain swi4, active compounds read low
Hit rate of the full screen: of about 5,500 compounds, about 2,000 (36%) were called active. Roughly 18% stayed inconclusive and do not appear here. The list shows a part of the results.
# Lookup of reported normalized growth keyed by entry
Please reply with the value in numeric form only.

Examples from the recorded data:
molecule	assay_value
C[C@@H]1CC[C@]2(C(=O)O)CC[C@]3(C)C(=CCC4[C@@]5(C)CC[C@H](O)C(C)(C)C5CC[C@]43C)C2[C@H]1C (some centres undefined)	0.984
CC(CC(=O)C1OC1(C)C)C1C(=O)CC2(C)C3=CCC4C(C)(C)C(OC5OCC(O)C(O)C5O)CCC45CC35C(O)CC12C (centres undefined)	1.03
C/C=C(/C)C(=O)O[C@@H]1[C@H](OC(C)=O)[C@@]2(CO)C(CC1(C)C)C1=CCC3[C@@]4(C)CC[C@H](O[C@@H]5O[C@H](C(=O)O)[C@@H](O[C@@H]6O[C@H](CO)[C@@H](O)[C@H](O)[C@H]6O)[C@H](O)[C@H]5O[C@@H]5O[C@H](CO)[C@@H](O)[C@H](O)[C@H]5O)[C@](C)(CO)C4CC[C@@]3(C)[C@]1(C)C[C@H]2O (some centres undefined)	0.968

Query: normalized growth; subject: CC1(C)CCC2(C(=O)O)CCC3(C)C(=CCC4C5(C)CCC(O)C(C)(C)C5C(O)CC43C)C2C1 (centres undefined)
1.02
